Estrogen receptor (Homo sapiens) measurements of IC50, listed per entry.
Sequence (P03372 whole entry): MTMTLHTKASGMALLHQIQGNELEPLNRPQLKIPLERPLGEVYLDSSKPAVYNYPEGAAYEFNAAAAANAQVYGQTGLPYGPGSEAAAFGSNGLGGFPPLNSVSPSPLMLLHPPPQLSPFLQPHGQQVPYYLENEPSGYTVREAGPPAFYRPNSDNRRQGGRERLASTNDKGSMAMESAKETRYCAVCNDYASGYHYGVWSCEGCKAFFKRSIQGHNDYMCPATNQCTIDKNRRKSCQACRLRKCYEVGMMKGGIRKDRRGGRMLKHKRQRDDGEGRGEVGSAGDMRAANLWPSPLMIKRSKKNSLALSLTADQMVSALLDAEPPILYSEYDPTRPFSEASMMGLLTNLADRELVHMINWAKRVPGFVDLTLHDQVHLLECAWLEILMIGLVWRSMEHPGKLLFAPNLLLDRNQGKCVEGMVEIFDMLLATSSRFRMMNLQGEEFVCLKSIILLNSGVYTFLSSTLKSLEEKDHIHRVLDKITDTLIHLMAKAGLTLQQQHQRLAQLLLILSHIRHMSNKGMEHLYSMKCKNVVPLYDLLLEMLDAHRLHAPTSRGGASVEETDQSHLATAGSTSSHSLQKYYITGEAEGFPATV
Please give a number only; it is taken to be in nM.

Give the value of IC50 reported for the following: `Oc1cccc([C@H]2Sc3cc(O)ccc3O[C@H]2c2ccc(OCCN3CCCCC3)cc2)c1`
4.1

Quickly give me recorded IC50 for Oc1cccc(C2Sc3cc(O)ccc3OC2c2ccc(OCCN3CCCCC3)cc2)c1 (centres undefined)
3

// fetch IC50 given entry `Cc1cc2c(cc1O)O[C@H](c1ccc(OCCN3CCCCC3)cc1)[C@H](c1ccc(O)cc1)S2`
34.9

Provide IC50 value for the following compound: `Oc1ccc([C@@H]2Sc3c(F)cc(O)cc3O[C@@H]2c2ccc(OCCN3CCCCC3)cc2)cc1`
0.5

Given the compound `Oc1cccc([C@H]2Sc3cc(O)ccc3O[C@H]2c2ccc(OCCNC3CCCCCC3)cc2)c1` , write its reported IC50.
1.2

Give IC50 for the following compound: `Oc1cccc([C@H]2Sc3cc(O)ccc3O[C@H]2c2ccc(OCCN3CCOCC3)cc2)c1`
3.8

Dear colleague, please send me the reported IC50 for COc1ccc(C2Sc3cc(O)ccc3OC2c2ccc(OCCN3CCCCC3)cc2)cc1 (centres undefined) when you can.
41.1

Indicate its recorded IC50; the compound in question is `Oc1ccc([C@@H]2Sc3cc(O)c(F)cc3O[C@@H]2c2ccc(OCCN3CCCCC3)cc2)cc1`
13.5

State its IC50 for this compound: `Oc1ccc([C@@H]2Sc3c(ccc(O)c3Cl)O[C@@H]2c2ccc(OCCN3CCCCC3)cc2)cc1`
2.4

---

target: Estrogen receptor (Rattus norvegicus) (UniProt P06211+Q62986); details: at 1 mg/kg
Description: Intrinsic estrogenic activity in rat (uterine weight) following 1 mg/kg s.c.
value.kind: Estrogenic effect (%)
Numeric answer only, unit % assumed.

Using known records, supply Estrogenic effect for `Oc1cccc([C@H]2Sc3cc(O)ccc3O[C@H]2c2ccc(OCCN3CCOCC3)cc2)c1`
29

Look up and state reported Estrogenic effect for `Oc1ccc([C@@H]2Sc3c(ccc(O)c3Cl)O[C@@H]2c2ccc(OCCN3CCCCC3)cc2)cc1`
27

// fetch Estrogenic effect given entry `CN(C)CCOc1ccc([C@@H]2Oc3ccc(O)cc3S[C@@H]2c2cccc(O)c2)cc1`
69

In one line, give reported Estrogenic effect of the entry `Cc1cc(O)cc2c1O[C@H](c1ccc(OCCN3CCCCC3)cc1)[C@H](c1ccc(O)cc1)S2` .
12

Please supply the value of reported Estrogenic effect for the item `Oc1ccc([C@@H]2Sc3cc(O)c(Cl)cc3O[C@@H]2c2ccc(OCCN3CCCCC3)cc2)cc1`
38

Return Estrogenic effect for the following molecule: Oc1ccc([C@@H]2Sc3cc(O)ccc3O[C@@H]2c2ccc(OCCN3CCCCC3)cc2)cc1 (stereo in doubt; 11)
5

Please indicate Estrogenic effect recorded for `Oc1cccc([C@H]2Sc3cc(O)ccc3O[C@H]2c2ccc(OCCNC3CCCCCC3)cc2)c1`
22

Tell me measured Estrogenic effect for `Cc1c(O)ccc2c1O[C@H](c1ccc(OCCN3CCCCC3)cc1)[C@H](c1ccc(O)cc1)S2` please.
27

State, in one line, measured Estrogenic effect of `Oc1ccc([C@@H]2Sc3c(F)cc(O)cc3O[C@@H]2c2ccc(OCCN3CCCCC3)cc2)cc1`
-2

---

assay: Half life period in female Sprague-Dawley rats; type: ADME, organism-based; details: female, Sprague-Dawley, rat, in vivo
value.kind: half-life (h)
Output spec: scalar in h, unitless text.

Identify measured half-life associated with `Oc1ccc([C@@H]2Sc3c(F)cc(O)cc3O[C@@H]2c2ccc(OCCN3CCCCC3)cc2)cc1`
5.9

Given the compound `Oc1ccc([C@H]2Sc3cc(O)ccc3O[C@H]2c2ccc(OCCN3CCCCC3)cc2)cc1` , write its reported half-life.
3.4

Query half-life for `Oc1ccc([C@@H]2Sc3c(ccc(O)c3F)O[C@@H]2c2ccc(OCCN3CCCCC3)cc2)cc1`
2.4

Give the reported half-life for this compound. `Oc1ccc([C@@H]2Sc3ccc(O)cc3O[C@@H]2c2ccc(OCCN3CCCCC3)cc2)cc1`
2.2

Tell me half-life reported for `Oc1ccc([C@H]2Sc3c(ccc(O)c3F)O[C@H]2c2ccc(OCCN3CCCCC3)cc2)cc1`
3.1

Consider the compound `Cc1cc(O)cc2c1S[C@@H](c1ccc(O)cc1)[C@@H](c1ccc(OCCN3CCCCC3)cc1)O2` and give its recorded half-life.
2.7
